Value source: PubChem BioAssay

Field: z-score. Provide a value for each of the compounds that follow.
Study System: NADPH oxidase 2 (Homo sapiens)
Protocol: compounds shifting NOX2 Amplex Red fluorescence – cell-based, HEK293-NOX2, PMA-stimulated, NOX inhibitor project, primary screen (AID 1159); note: test concentration not given here
Test Context: 45 min, higher = more signal, called active from +8 up or from −8 down
Answers are plain numbers.

Please review the entries below; each comes with its answer.
- Compound: "COC(=O)c1c2oc(c1C(=O)OC)C(=O)NC1(CCCCC1)c1cn(nn1)C[C@H](Cc1ccccc1)NC(=O)N[C@H](CO)CC2"
  z-score: -0.463
- Compound: "CC(C)=CCCC(C)=CC(O)C1C=CC2C(=O)N(c3ccccc3)C(=O)C2N1Nc1ccc(C(C)C)cc1 (configuration not stated)"
  z-score: -1.11
- Compound: "CN1C(=O)C2C=CC(C(O)C=Cc3ccc([N+](=O)[O-])cc3)N(Nc3ccccc3)C2C1=O (configuration not stated)"
  z-score: -1.57
- Compound: "CC(=O)NCCCC[C@@H]1NC(=O)[C@H]2C[C@@H](C(=O)O)[C@@H](c3ccc(O)cc3)N2C1=O"
  z-score: 1.61
- Compound: "CO[C@H]1O[C@H](CO)[C@@H](OC(=O)Nc2ccccc2)[C@@H]2OC(=O)[C@@H](Cc3ccc4ccccc4c3)C/C=C/C[C@H](Cc3ccc4ccccc4c3)C(=O)O[C@@H]12"
  z-score: 0.829

Please state z-score for every compound in the list that follows.
1. COCCOC(=O)N1C(=O)[C@@]2(c3cc(C#CCCO)ccc31)[C@H](c1ccc(OCCO)cc1)N1[C@H](c3ccccc3)[C@H](c3ccccc3)OC(=O)[C@H]1[C@@H]2C(N)=O
2. CC(C)OC(=O)C=C1C[C@@H](c2cccc(Cl)c2)O[C@@H](c2cccc(Cl)c2)O1

1: 1.93; 2: 0.215
